Overview of reported EC50 across a group of binders:
# measured-target: T1, cynomolgus monkey CCR8 (cynomolgus monkey, UniProt O97665 1-356 (rhesus entry))
# T1 construct: Full-length, stably expressed on CHO cells; also called cynoCCR8; CHO-cynoCCR8
# T1 sequence (O97665 other isoform, or with tags, fused parts or gaps): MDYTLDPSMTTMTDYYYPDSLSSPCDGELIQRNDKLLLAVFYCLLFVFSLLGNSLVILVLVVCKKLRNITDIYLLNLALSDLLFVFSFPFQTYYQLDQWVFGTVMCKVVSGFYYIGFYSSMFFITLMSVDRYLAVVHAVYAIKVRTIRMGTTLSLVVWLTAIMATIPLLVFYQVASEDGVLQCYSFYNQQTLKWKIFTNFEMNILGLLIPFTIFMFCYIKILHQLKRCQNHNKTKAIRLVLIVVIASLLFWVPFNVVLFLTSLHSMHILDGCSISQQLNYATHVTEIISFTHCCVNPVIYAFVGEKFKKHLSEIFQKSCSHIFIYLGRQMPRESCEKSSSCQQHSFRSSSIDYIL
# assay-info: flow cytometry, chimeric IgG on CHO-cynoCCR8 cells
Provide only the numeric value, understood in nM.

[[record]]
binder = "139A9 anti-CCR8 chimeric antibody (antibody, V domains shown) VH: QVQLVESNGRLVQPKGSLKLSCAASGFTFNAYAMNWVRQAPGKGLEWVARIRSKSNNYATYYADSVKDRFTISRDDSQSMLYLQMNNLKTEDTAMYFCVRQKFGARGYYALDFWGQGASVTVSS VL: ENVLTQSPTTMAASPGEKITITCSASSSISSNYLHWYQQKPGFSPKLLIYRTSNLASGVPARFSGSGSGTSYSLTIGTMEAEDVATYYCQQGSSIPLTFGAGTKLELK"
property_measured = "EC50"
readout_number = 1.99


Prompt: For 116F10 anti-CCR8 chimeric antibody (antibody, V domains shown) VH: EVQLVESYGGLVQPKGSLKLSCAASGFTFNAYAMNWVRQAPGKGLEWVARIRSKSNNYATYYADSVKDRFTISRDDSQNILYLQMNNLKIEDTAMYFCVRQKFGSRGYYALDFWGQGASVTVSS VL: EIVLTQSPAIMSVSPGEKVTMTCRASSSVSSSYLHWYQQKSGASPKLWIYSTSTLASGVPARFSGSGSGTSYSLTISSVEAEDAATYYCQHYTVYPLGTFGGGTKLEIK , what is its reported EC50?
Response: 1.25
